Listed molecules paired with reported TGI
Tested on: SF-539 CNS
Experiment: NCI tumour cell line growth inhibition, 48 h

{"molecule": "Nc1ccc(N)c2c1C(=O)c1c(N)ccc(N)c1C2=O", "target-under-test": "SF-539 CNS", "TGI": "> 88.8 µM"}
{"molecule": "COC(=O)CCC(=O)c1ccc2c(c1)CC1(C2)Cc2ccc3c(c2C1)CCCC3=O (centres undefined)", "target-under-test": "SF-539 CNS", "TGI": "42.6 µM"}
{"molecule": "O=C(O)C1OC(Oc2cc(O)c3c(=O)cc(-c4ccc(O)cc4)oc3c2)C(O)C(O)C1O (centres undefined)", "target-under-test": "SF-539 CNS", "TGI": "> 100 µM"}
{"molecule": "Cc1cccc(NC(=O)CC#N)c1Cl", "target-under-test": "SF-539 CNS", "TGI": "> 100 µM"}
{"molecule": "CCN1CCN(C(=O)[C@]23CCC(C)(C)C[C@@H]2C2=CC[C@@H]4[C@@]5(C)C/C(=C/c6cccnc6)C(=O)C(C)(C)[C@@H]5CC[C@@]4(C)[C@]2(C)CC3)CC1", "target-under-test": "SF-539 CNS", "TGI": "3 µM"}
{"molecule": "Cc1nn(-c2ccc(Br)cc2)c(C)c1CC(=O)c1cc(O)ccc1O", "target-under-test": "SF-539 CNS", "TGI": "28 µM"}
{"molecule": "O=C1OC(c2ccccc2)N/C1=C\\c1ccc2c(c1)OCO2 (centres undefined)", "target-under-test": "SF-539 CNS", "TGI": "> 31.6 µM"}
{"molecule": "COc1cc(-c2cc(CCC(=O)Nc3ccccc3[N+](=O)[O-])n(-c3ccc([N+](=O)[O-])cc3[N+](=O)[O-])n2)ccc1O", "target-under-test": "SF-539 CNS", "TGI": "> 100 µM"}
{"molecule": "COc1ccc(/C(C)=N/NC(N)=S)c(OC)c1", "target-under-test": "SF-539 CNS", "TGI": "> 100 µM"}

Data provenance: PubChem BioAssay (NCI)
